B1: POMT2 (parent)
chain: LRGGGQVLLGWTLHYFPFFLMGRV

# Variants of: B1
# test: protein stability index of a GFP-peptide fusion (GPS, HEK-293T) (PSI 1-6); higher = more stable;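 note: lentivirally expressed fusions sorted by FACS into six bins by GFP to DsRed ratio, PSI derived from sequencing read proportions per bin multiplied by bin number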
# assay-setup: c terminus: a fixed tail appended
Record 1 whenever protein stability index is at 3 or higher; record -1 when lower.

[[record]]
sequence_code = "LRGGGQVYLGWTLHYFPFFLMGRV [L8Y]"
assigned_class = 1


Threshold query (protein stability index >= 3) on LRGGGQVLLGWTLHYHPFFLMGRV [F16H]
1

For LRGGGQVLLGTTLHYFPFFLMGRV [W11T] then?
-1

Then what about the variant LRGGGQVLLGWTLHYFPFSLMGRV [F19S] ?
1

Input LRGGGQTLLGWTLHYFPFFLMGRV [V7T]
-1

Would you mind doing LRGGGQVLLGWTLHYFPFFFMGRV [L20F] as well?
1

Same for LRGGGQVLLGWSLHYFPFFLMGRV [T12S]
-1

Follow-up item: LRGGGQVLLGWTLHYFPFFLAGRV [M21A]
1

And then LRGGGQVLLGWTLHYFEFFLMGRV [P17E] , what is it?
-1
